Molecular target: Ba/F3 FLT3 (ITD) (Homo sapiens, UniProt P36888, cells depend on it, form not given)
Sequence (P36888 1-993): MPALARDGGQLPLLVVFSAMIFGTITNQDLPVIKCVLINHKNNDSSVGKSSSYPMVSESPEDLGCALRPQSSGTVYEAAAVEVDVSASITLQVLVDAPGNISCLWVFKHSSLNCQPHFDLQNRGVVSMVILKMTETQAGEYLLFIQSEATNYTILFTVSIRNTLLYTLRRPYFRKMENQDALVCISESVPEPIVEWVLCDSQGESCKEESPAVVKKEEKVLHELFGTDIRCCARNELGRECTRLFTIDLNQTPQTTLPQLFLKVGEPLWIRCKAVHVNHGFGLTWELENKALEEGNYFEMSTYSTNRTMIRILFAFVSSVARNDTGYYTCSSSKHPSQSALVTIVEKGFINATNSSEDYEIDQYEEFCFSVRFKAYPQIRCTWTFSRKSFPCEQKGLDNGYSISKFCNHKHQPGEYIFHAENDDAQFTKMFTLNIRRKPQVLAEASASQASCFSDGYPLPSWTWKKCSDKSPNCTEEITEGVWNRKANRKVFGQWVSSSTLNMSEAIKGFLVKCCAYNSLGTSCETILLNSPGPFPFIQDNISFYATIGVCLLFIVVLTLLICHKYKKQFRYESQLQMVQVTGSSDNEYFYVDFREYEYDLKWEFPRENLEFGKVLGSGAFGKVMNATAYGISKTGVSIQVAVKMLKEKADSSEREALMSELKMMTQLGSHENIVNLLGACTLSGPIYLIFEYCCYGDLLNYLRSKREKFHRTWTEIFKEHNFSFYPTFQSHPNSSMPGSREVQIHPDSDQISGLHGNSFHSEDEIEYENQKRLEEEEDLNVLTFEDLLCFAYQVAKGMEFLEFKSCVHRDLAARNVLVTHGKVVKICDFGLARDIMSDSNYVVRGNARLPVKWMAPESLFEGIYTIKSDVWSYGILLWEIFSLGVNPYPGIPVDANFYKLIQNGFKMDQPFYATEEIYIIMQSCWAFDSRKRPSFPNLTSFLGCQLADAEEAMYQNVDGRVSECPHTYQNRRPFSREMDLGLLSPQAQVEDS
Assay: Ba/F3 cell growth inhibition (CellTiter-Glo, 72 hours)
Assay type: cell-based
Conditions: read-out: Ba/F3 GI50s (μM) FLT3 (ITD)
The entries below come with measured GI50 values attached.

Solved cases below.
COc1cccc(NC(=O)N2CCCn3cc(cn3)Nc3ncc4ccc(n4n3)-c3ccc(cc3)OCC2)c1 | < 1 µM
O=C1COCCOc2ccc(cc2)-c2ccc3cnc(nn23)Nc2ccc(cc2)OCCCN1 | < 1 µM
CS(=O)(=O)Nc1cccc(-c2ccc3cnc(Nc4ccc(N5CCN(CCCCCCCCCCCOc6cccc7c6C(=O)N(C6CCC(=O)NC6=O)C7=O)CC5)cc4)nn23)c1 (stereo not shown) | < 1 µM
O=C1CCCCCCOc2ccc(cc2)-c2ccc3cnc(nn23)Nc2cnn(c2)CCCN1 | < 1 µM
O=C1CCCCCCOc2ccc(cc2)-c2ccc3cnc(nn23)Nc2ccc(cc2)OCCCN1 | < 1 µM

Req: Query (compound): O=C1CCCCOc2ccc(cc2)-c2ccc3cnc(nn23)Nc2cnn(c2)CCCN1 ; field requested: GI50
Resp: < 1 µM

Req: Next: Cc1ncsc1-c1ccc(CNC(=O)[C@@H]2C[C@@H](O)CN2C(=O)[C@@H](NC(=O)COCCN2CCN(c3ccc(Nc4ncc5ccc(-c6cccc(NS(C)(=O)=O)c6)n5n4)cc3)CC2)C(C)(C)C)cc1
Resp: < 1 µM

Req: Next: CS(=O)(=O)Nc1cccc(-c2ccc3cnc(Nc4ccc(N5CCN(CCCCCOc6cccc7c6C(=O)N(C6CCC(=O)NC6=O)C7=O)CC5)cc4)nn23)c1 (stereo not shown)
Resp: ≥ 10 µM

Sourced from patent US20250136614A1
